Tested on: OVCAR-3
Assay: NCI tumour cell line growth inhibition, 48 h
Active and inactive are the calls of the source. No stated cut-off is given here; in the data, active = GI50 up to about 1.1 µM and inactive = higher.
Each entry below carries its reported GI50.

Recorded GI50, per entry:
1. Cc1ccccc1-n1c2nc(=O)n(C)c(=O)c-2nc2ccccc21 = 2.33 µM (inactive)
2. O=C(O)CSc1nc2ccccc2[nH]1 = > 100 µM (inactive)
3. CC(C)c1cc(C(C)C)c(B(c2ccccc2)c2ccccc2)c(C(C)C)c1B(c1ccccc1)c1ccccc1 = > 100 µM (inactive)
4. O=C(O/C=C\OC1CCCC1(c1ccccc1)c1ccccc1)c1ccccc1 (stereo not given) = 9.2 µM (inactive)

Consider the additional compound presented here.
Reported GI50 for O=C(N/N=C(COc1cccc(Cl)c1)\N=C\c1ccncc1)c1ccncc1 was > 100 µM (inactive)

---

Tested on: NCI/ADR-RES
Test: NCI tumour cell line growth inhibition, 48 h
The source made the active and inactive calls. Cut-off read from the data, not from the text of the source: active = GI50 up to about 1.1 µM and inactive = higher.
METRIC: GI50

1) C/C=C/c1c(O)c(=O)c2c(OC)cc(OC)c3c4c(OC)cc(OC)c5c(=O)c(O)c(/C=C/C)c(c1c23)c54 = 14.5 µM (inactive)
2) COc1ccc(OC)c2sc(N3C(=O)/C(=C/c4ccc(N(C)C)cc4)N=C3c3ccccc3)nc12 = > 100 µM (inactive)
3) COc1ccc2c(c1)CCCN1Cc3cc(OC)c(OC)cc3CC21 (stereo not given) = > 100 µM (inactive)
4) Cc1ccc(S(=O)(=O)N/N=C2\C(=O)Nc3cc(O)c(C(=O)O)cc32)cc1 = > 100 µM (inactive)

Moving on to the next compound.
Test item C[C@]12CCC3c4ccc(O)cc4CC[C@H]3C1CC(=O)N(CCN1CCCC1)C2=O (stereo not given in full) ; NCI/ADR-RES; reported GI50 was > 10 µM (inactive)

---

Test system: SW-620
Assay: NCI tumour cell line growth inhibition, 48 h
The source made the active and inactive calls. Rule as the data show it: active = GI50 up to about 1.1 µM and inactive = higher.
Please state which outcome applies, choosing from 1 (active), 0 (inactive)

Worked set:
1) O=S(=O)(O)C(CO)c1ccccc1.O=S(=O)(O)Cc1ccccc1 (stereo unspecified) = 0
2) C/C(CCn1[nH]c(=O)ccc1=O)=N\O = 0
3) Cc1nc2ccc(F)cc2c2c1CCN2c1ccccc1 = 0
4) C=C1c2nc3ccccc3n2C=C(c2ccc(OC)cc2)N1c1ccc(OCCN2CCOCC2)cc1 = 0

Q. Lab log entry: O=c1cnn(C2OC(CO)C(O)C(F)C2O)c(=O)[nH]1 (stereo unspecified) — outcome as called in the assay?
A. 0

Q. // outcome(item) with item = CC[C@@]1(O)CC(OC2CC(N3CCOCC3)C(O)C(C)O2)c2c(O)c3c(c(O)c2[C@H]1O)C(=O)c1cccc(O)c1C3=O (stereo partly specified)
A. 1

Q. State the result this test recorded for Cc1c2c(n3c(nc4ccccc43)c1C#N)SCC2 .
A. 0

Q. In this assay, the call recorded for COc1ccc(CCN2C(=O)C=CC2=O)cc1OC was what?
A. 0

Q. Just curious, what result did COc1ccc(NC(=O)CC/C(CC(=O)c2ccco2)=N/NC(=O)C(N)=O)cc1 get here?
A. 0

Q. I would be grateful if you could indicate the recorded call for C=CCOc1ccc(N)c([N+](=O)[O-])c1 .
A. 0

Q. Give the logged outcome of this assay for the following molecule: Cc1cc(S(=O)(=O)Nc2nc3cccnc3[nH]2)c(S)cc1Cl
A. 0
